# ASSAY SUMMARY: Permeability of compound at pH 7.4 by PAMPA assay
Item-by-item account of Papp
Please reply with the bare figure in ×10⁻⁶ cm/s and do not write the unit itself.

Inquiry: Supply recorded Papp for `O=C(c1ccccn1)N1CCN(CCCN2CCN(c3cccc(Cl)c3Cl)CC2)CC1` here.
Reply text: 17

Inquiry: Report Papp for `O=C(c1ccccc1)N1CCN(CCCN2CCN(c3ccccc3)CC2)CC1`
Reply text: 20

Inquiry: Give recorded Papp. `N#Cc1cccnc1N1CCN(CCN2CCN(c3cccc(Cl)c3Cl)CC2)CC1`
Reply text: 7.9

Could you now consider this next compound?
Inquiry: Recall and state the measured Papp for `COc1ccccc1N1CCN(CCCN2CCN(C(=O)c3ccccn3)CC2)CC1` .
Reply text: 8.7
